- test.summary: amyloid nucleation score (Sup35N fusion, yeast selection) (log enrichment); library NNK1; higher = more nucleation; inactive = no reads after selection;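 further: zero at mode of non-aggregating sequences after 7 days selection at 30°C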
Consider the following partition of reported amyloid nucleation score into named classes: Low: < 0.03; Mid: ≥ 0.03 and < 0.9; High: ≥ 0.9

# substance, group.label
rows = [
    ("GRIVVTSQFMMIGRWGSPPP", "High"),
    ("KTFYLWW", "High"),
    ("FVADGLAPFLPMTVPLVGIK", "Low"),
    ("CMILFTNRQRVMRLVLCLSD", "Mid"),
    ("DTLDLQLRNVRLTRACMAQY", "Mid"),
    ("DEFSFDSSLLMLFGAGYGV", "High"),
    ("VVSRWLRVFNFFEAKDFILV", "Low"),
    ("YCMYMVWLKGK", "Low"),
    ("PVCVIRRGMAFSAFGWVPLE", "Mid"),
    ("LGGSDYVYANSFTTIGSSGV", "Low"),
    ("ETLSSFI", "Mid"),
    ("VKLCRACCYEYWRHHSPLGC", "Mid"),
    ("KVPDALFVDRLLYQVISCIH", "High"),
    ("EDVAYYGNGFRLTYDRQITL", "Low"),
    ("YWWKMLERQTRS", "Mid"),
    ("HCSFSWGYRWLGWTTKSGNM", "High"),
    ("IGIFIGRLCCYIFGEVMR", "High"),
]

* * *

- test.summary: amyloid nucleation score (Sup35N fusion, yeast selection) (log enrichment); library NNK3; higher = more nucleation; inactive = no reads after selection
parameter.measured: amyloid nucleation score

# substance, parameter.measured, obs.value
records = [
    ("HITCVMSIKTRGLRMTERGS", "amyloid nucleation score", 1.51),
    ("IIFFNSDMNLGTDV", "amyloid nucleation score", "inactive"),
    ("HRYVKALRFF", "amyloid nucleation score", "inactive"),
    ("VYFLSVQLLYLFLSSALQRE", "amyloid nucleation score", "inactive"),
    ("FSFWTTSN", "amyloid nucleation score", "inactive"),
    ("HCRDEYYIYNRI", "amyloid nucleation score", "inactive"),
    ("LALFDRGTCRQSSVYSGEDS", "amyloid nucleation score", "inactive"),
    ("QVLASTNATESCRIDRDTVV", "amyloid nucleation score", "inactive"),
    ("EQTLGYNLIRAWLSKCCWMT", "amyloid nucleation score", "inactive"),
    ("VQLGAD", "amyloid nucleation score", "inactive"),
    ("RQTTYHGGKWLCSSVSGMYN", "amyloid nucleation score", "inactive"),
    ("SVYRSRSHRVFWEFLSGAT", "amyloid nucleation score", "inactive"),
    ("SWVYGSSDPSRVSSCLVGVL", "amyloid nucleation score", "inactive"),
    ("LHKALQYTKTLSESRRLCNR", "amyloid nucleation score", "inactive"),
    ("AYELHKTPNGPSPSESLALI", "amyloid nucleation score", "inactive"),
    ("KLVAGFPAGCTK", "amyloid nucleation score", "inactive"),
    ("VIMFVAIGWLLR", "amyloid nucleation score", "inactive"),
    ("VARISYLEIHNGETNFTYWF", "amyloid nucleation score", 2.47),
    ("ILYFDVTISV", "amyloid nucleation score", "inactive"),
    ("KGMFLVMSRLCPFISWSRSQ", "amyloid nucleation score", "inactive"),
    ("GRLCELITSMY", "amyloid nucleation score", "inactive"),
    ("LSIYRFSCTNSRCLMDLFI", "amyloid nucleation score", "inactive"),
    ("GRSYREIMDSIFCGQFFYNK", "amyloid nucleation score", 2.45),
    ("EEFSGNLCDFRLQPRSCCEN", "amyloid nucleation score", "inactive"),
    ("GLVLISKC", "amyloid nucleation score", "inactive"),
    ("YSTVDQLARGLQKLMVWLDV", "amyloid nucleation score", "inactive"),
    ("SFVKWVKNQHF", "amyloid nucleation score", "inactive"),
    ("TSFFNNFSLLFVLVWNVLRG", "amyloid nucleation score", "inactive"),
    ("SLVTYNVVRSKARNRWIELV", "amyloid nucleation score", "inactive"),
    ("DSFGLFCYTYLWCLWQANDK", "amyloid nucleation score", 2.05),
    ("RVMRHLFHFVCNKSLDYWYR", "amyloid nucleation score", "inactive"),
    ("VTVIYNVDYCKETIFQMVVT", "amyloid nucleation score", 0.124),
    ("ICSMYTTVSRNTEL", "amyloid nucleation score", "inactive"),
]
